Experiment: AUC of epirubicin following intrahepatic epirubicin emulsion at 1 mg.Kg-1 dose in rabbit
Format: ADME, organism-based, Oryctolagus cuniculus
Settings: both, New Zealand White, blood
quantity: AUC (ng·h/mL)
Numeric answer only, unit ng·h/mL assumed.

Request: Retrieve AUC measured for COc1cccc2c1C(=O)c1c(O)c3c(c(O)c1C2=O)C[C@@](O)(C(=O)CO)C[C@@H]3O[C@H]1C[C@H](N)[C@@H](O)[C@H](C)O1.Cl [EPIRUBICIN HYDROCHLORIDE] and print it.
Response: 36.4

* * *

Assay: AUC (2-8 h) of ADR-529 following intravenous ADR-529 at 20 mg.Kg-1 dose administered approximately 25 minute prior to epirubicin once weekly for four weeks in dog
Assay type: ADME, organism-based, Canis lupus familiaris
Design: dose 20 mgKg-1, dosed compound id 2.4681e+06, dosed compound name Dexrazoxane, dose level High, route intravenous, sampling time 8 h, study doses 5/10/20 mgKg-1
Details: Beagle, plasma
quantity: AUC (ng·h/mL)
Numeric answer only, unit ng·h/mL assumed.

Request: Retrieve AUC measured for `C[C@@H](CN1CC(=O)NC(=O)C1)N1CC(=O)NC(=O)C1` and print it.
Response: 5570
